Would you mind telling me the reported MIC of each entry?
Tested on: Proteus vulgaris
EXPERIMENT_SUMMARY: Antibacterial activity against Proteus vulgaris
Format: functional
Write your answer as a measured quantity: the number, then the unit.

COMPOUND	MIC
COc1ccc(N2C(=O)[C@H]3[C@@H]2[C@H]2[C@H](c4ccc(Cl)cc4)[C@]4(CCc5ccccc5C4=O)ON2[C@@H]3C[Se]c2ccccc2)cc1	45 µg/mL
CN(C)[C@@H]1C(O)=C(C(N)=O)C(=O)[C@@]2(O)C(O)=C3C(=O)c4c(O)cccc4[C@@](C)(O)[C@H]3C[C@@H]12 [TETRACYCLINE]	15 µg/mL
COc1ccc(N2C(=O)[C@H]3[C@@H]2[C@H]2[C@H](c4ccccc4)[C@]4(CCc5ccccc5C4=O)ON2[C@@H]3C[Se]c2ccccc2)cc1	40 µg/mL

State recorded MIC for all listed compounds.
1. COc1ccc([C@H]2[C@@H]3[C@H]4[C@H](C(=O)N4c4ccc(OC)cc4)[C@@H](C[Se]c4ccccc4)N3O[C@@]23COc2ccccc2C3=O)cc1
2. COc1ccc(N2C(=O)[C@H]3[C@@H]2[C@H]2[C@H](c4ccc(C)cc4)[C@]4(CCc5ccccc5C4=O)ON2[C@@H]3C[Se]c2ccccc2)cc1

["15 µg/mL", "45 µg/mL"]

State recorded MIC for all listed compounds.
1. COc1ccc(N2C(=O)[C@H]3[C@@H]2[C@H]2[C@H](c4ccc(C)cc4)[C@]4(COc5ccccc5C4=O)ON2[C@@H]3C[Se]c2ccccc2)cc1
2. COc1ccc(N2C(=O)[C@H]3[C@@H]2[C@H]2[C@H](c4ccc(Cl)cc4)[C@]4(COc5ccccc5C4=O)ON2[C@@H]3C[Se]c2ccccc2)cc1
3. COc1ccc(N2C(=O)[C@H]3[C@@H]2[C@H]2[C@H](c4ccc(Br)cc4)[C@]4(CCc5ccccc5C4=O)ON2[C@@H]3C[Se]c2ccccc2)cc1
4. COc1ccc([C@H]2[C@@H]3[C@H]4[C@H](C(=O)N4c4ccc(OC)cc4)[C@@H](C[Se]c4ccccc4)N3O[C@@]23CCc2ccccc2C3=O)cc1
5. COc1ccc(N2C(=O)[C@H]3[C@@H]2[C@H]2[C@H](c4ccccc4)[C@]4(COc5ccccc5C4=O)ON2[C@@H]3C[Se]c2ccccc2)cc1
6. COc1ccc(N2C(=O)[C@H]3[C@@H]2[C@H]2[C@H](c4ccc(Br)cc4)[C@]4(COc5ccccc5C4=O)ON2[C@@H]3C[Se]c2ccccc2)cc1

40 µg/mL
10 µg/mL
35 µg/mL
35 µg/mL
30 µg/mL
25 µg/mL

This collection of values is drawn from ChEMBL document CHEMBL1158605.
